Here the recorded Bliss excess is given for each entry.
Test system: NCI-H1623 (Lung Adenocarcinoma);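 further: after 72 h of two-drug dosing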
Assay Protocol: Bliss excess, mean over the matrix (fraction); higher = more synergy
Kindly provide the number alone.

// solved cases for Bliss excess follow
Compound	Target Or System	Recorded Result
CCN(CCO)CCCOc1ccc2c(Nc3cc(CC(=O)Nc4cccc(F)c4)[nH]n3)ncnc2c1 [AZD2811] + C=CCn1c(=O)c2cnc(Nc3ccc(N4CCN(C)CC4)cc3)nc2n1-c1cccc(C(C)(C)O)n1 [AZD1775] (first compound max 1 µM, partner max 1 µM)	NCI-H1623 (Lung Adenocarcinoma)	0.009
COc1cccc(OCCCN)c1-c1cc(Nc2cnc(C#N)cn2)n[nH]1 [Prexasertib] + CCc1c2c(nc3ccc(O)cc13)-c1cc3c(c(=O)n1C2)COC(=O)[C@]3(O)CC [SN-38] (first compound max 1 µM, 7x7, partner max 0.3 µM)	NCI-H1623 (Lung Adenocarcinoma)	-0.0364

Here is another compound to look at.
Task: Entry CC1(C)CCC(CN2CCN(c3ccc(C(=O)NS(=O)(=O)c4ccc(NCC5CCOCC5)c([N+](=O)[O-])c4)c(Oc4cnc5[nH]ccc5c4)c3)CC2)=C(c2ccc(Cl)cc2)C1 [Venetoclax] + CN(C)CCCOc1ccc(-c2ccc3ncc4c(c3c2)n(C2CCOCC2)c(=O)n4C)cn1 [AZD0156] (first compound max 1 µM, 7x7, partner max 1 µM) , system NCI-H1623 (Lung Adenocarcinoma): what Bliss excess was measured?;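 further: after 72 h of two-drug dosing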
Result: -0.0133
